testedTarget: human CD33 I149A (human, UniProt P20138 18-364)
Sequence (P20138 18-364 I149A limits assumed): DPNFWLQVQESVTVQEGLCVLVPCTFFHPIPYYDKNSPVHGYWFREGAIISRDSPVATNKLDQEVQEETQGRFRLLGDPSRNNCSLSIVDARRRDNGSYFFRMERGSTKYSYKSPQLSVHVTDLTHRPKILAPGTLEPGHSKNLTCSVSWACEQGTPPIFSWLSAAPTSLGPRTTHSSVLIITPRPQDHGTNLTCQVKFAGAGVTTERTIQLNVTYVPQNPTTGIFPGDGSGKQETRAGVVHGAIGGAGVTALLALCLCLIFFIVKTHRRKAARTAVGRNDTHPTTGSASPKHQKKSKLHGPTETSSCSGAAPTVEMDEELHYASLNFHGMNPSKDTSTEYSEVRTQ
test: flow cytometry on HEK293-T, alanine scan
valueKind: Mean % WT Binding (% WT binding)
Numeric answer only, unit % WT binding assumed.

Item Refmab #2 (antibody, V domains shown, The alanine scan used IgG or Fab) VH: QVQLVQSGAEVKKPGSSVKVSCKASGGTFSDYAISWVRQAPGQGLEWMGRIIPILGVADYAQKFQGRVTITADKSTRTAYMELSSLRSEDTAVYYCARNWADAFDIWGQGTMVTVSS VL: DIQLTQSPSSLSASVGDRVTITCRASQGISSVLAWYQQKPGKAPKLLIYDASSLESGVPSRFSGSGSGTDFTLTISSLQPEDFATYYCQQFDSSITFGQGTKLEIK has what recorded Mean % WT Binding?
116
